meta.source: PubChem BioAssay (NCI)

System: OVCAR-4 ovarian
Test: NCI-60 one-dose screen, 48 h
Settings: 10 µM unless noted
This is part of a sample that, as a whole, favours compounds with a hit. Of some 83,000 tested, about 20% had one in any assay. Active and inactive are the calls of the source. The calls were made as follows: active = growth percent below 10; inactive = the rest.
Possible outcomes: Yes for active, No for inactive

>>> assigned_class("CCOC(=O)c1c(Nc2ccccc2)nn2c(N)c(C#N)c(-c3ccccc3)nc12")
"No"
>>> assigned_class("COc1ccc(-c2nc3ccc(-c4nnc(SCC(=O)Nc5ccc(C(=O)/C=C/c6ccccc6)cc5)o4)cc3[nH]2)cc1OC")
"No"
>>> assigned_class("CS(=O)(=O)c1ccc(-n2cc(/C=C/C(=O)c3ccc(NC(=O)CO[N+](=O)[O-])cc3)c(-c3ccc(Cl)cc3)n2)cc1")
"No"
>>> assigned_class("CC(C)(C)Nc1nc2c(OCCc3ccccc3)cccn2c1-c1ccccc1Cl")
"No"
>>> assigned_class("Clc1ccc2c(NCCCn3ccnc3)c3oc4ccccc4c3nc2c1")
"No"
>>> assigned_class("N#Cc1ccc(C(=O)CSc2nc(Nc3ccc(S(N)(=O)=O)cc3)c3ccccc3n2)cc1")
"No"
>>> assigned_class("CS(=O)(=O)c1ccc(-c2nc3ccccn3c2/C=N/Nc2nc(-c3ccc(Cl)cc3)cs2)cc1")
"No"
>>> assigned_class("O=[N+]([O-])c1ccc(O)c2ncccc12")
"No"
>>> assigned_class("O=C1Nc2cc(Cl)ccc2/C1=C\\c1ccc(OCc2ccc(Br)cc2F)cc1")
"Yes"
>>> assigned_class("CN1C(=O)N(c2ccccc2)C2N=C(N/N=C/c3ccccc3)SC21 (centres undefined)")
"No"
>>> assigned_class("Cc1cc(=O)oc2cc(OCCCOc3ccc(/C=C/C(=O)Nc4ccc(Cl)cc4)cc3)ccc12")
"No"
>>> assigned_class("C#C[C@]1(O)CC[C@H]2[C@@H]3CC=C4c5sc(-c6ccc(F)cn6)nc5CC[C@]4(C)[C@H]3CC[C@@]21C")
"No"
>>> assigned_class("Oc1c(Cl)cc(Cl)c2ccc(CN3CCCCC3)nc12")
"No"
>>> assigned_class("COc1cccc(NC2=CC(=O)C(C)=C(C)C2=O)c1")
"Yes"
>>> assigned_class("CC(C)(C)OC(=O)N1C(=O)c2c(c3c4ccccc4[nH]c3c3ccc4ccccc4c23)C1=O")
"No"
>>> assigned_class("CCN1CCN(S(=O)(=O)c2oc(-c3ccc(Cl)cc3)nc2C#N)CC1")
"No"
>>> assigned_class("O=C(NNc1nc2cc(F)ccc2n2c(CN3CC4(COC4)C3)ccc12)c1cnccn1")
"No"
>>> assigned_class("N#Cc1nc(-c2ccccc2)oc1S(=O)(=O)N1CCN(CCc2ccccn2)CC1")
"No"
>>> assigned_class("COc1ccc(CNS(=O)(=O)/N=C2\\NC(=O)NC2=C(Cl)Cl)cc1")
"No"
>>> assigned_class("O=C(N/N=C/c1ccc(Br)s1)c1[nH]c2ccc(Br)cc2c1-c1ccccc1")
"No"
>>> assigned_class("C#Cc1nc(C2=C(C)C(OC(C)=O)/C(=N/OC(C)=O)C2)cs1 (centres undefined)")
"Yes"
>>> assigned_class("CC(=O)Nc1cc(F)cc(-c2ccc3[nH]cc(-c4ccccc4)c3n2)c1")
"No"
>>> assigned_class("Cc1cc2nc3c4cc(Cl)ccc4n(CC(=S)NCCN(C)C)c3nc2cc1C")
"Yes"
>>> assigned_class("CC(=O)Oc1ccccc1C(=O)Nc1ccc(C(=O)/C=C/c2cccs2)cc1")
"No"
>>> assigned_class("COc1ccc(-c2cc(C(=O)N=Nc3c(O)[nH]c4ccccc34)c3ccccc3n2)cc1OC")
"No"
>>> assigned_class("CN(C)CCCNc1c2ccc(Cl)cc2nc2c1oc1ccc(Cl)cc12")
"Yes"
>>> assigned_class("O=C(N/N=C/c1ccc(Cl)s1)c1[nH]c2ccc(Br)cc2c1-c1ccccc1")
"No"
>>> assigned_class("NS(=O)(=O)c1cccc(Nc2nc(SCC(=O)c3ccc(Cl)cc3)nc3ccccc23)c1")
"No"
>>> assigned_class("COc1cccc(N2CCN(c3ncnc4c3[nH]c3ccc(F)cc34)C[C@@H]2C)c1")
"Yes"
>>> assigned_class("COc1ccc(-c2csc(N/N=C/c3c(-c4ccc(S(C)(=O)=O)cc4)nc4ccccn34)n2)cc1")
"No"
>>> assigned_class("Nc1nc(N)c2c(n1)NC(c1ccc(F)cc1)CC(c1ccc(Nc3nc(NCCO)nc(Nc4ccc(Cl)cc4)n3)cc1)=N2 (centres undefined)")
"Yes"
>>> assigned_class("O=C(CCN1C(=O)/C(=C/c2ccccc2F)SC1=S)N1CCOCC1")
"No"
>>> assigned_class("COc1ccc(/C=N/NC(=O)c2[nH]c3ccc(Br)cc3c2-c2ccccc2)s1")
"No"
>>> assigned_class("Cc1ccc(/C=C/c2nn3c(-c4ccco4)nnc3s2)cc1C")
"No"
>>> assigned_class("N[C@@H](Cc1cn(-c2c3ccccc3nc3ccccc23)nn1)C(=O)O")
"No"
>>> assigned_class("CS(=O)(=O)Nc1ccc(-c2nn(-c3ccc(S(C)(=O)=O)cc3)cc2/C=C/C(=O)c2ccc(NC(=O)CO[N+](=O)[O-])cc2)cc1")
"No"
>>> assigned_class("N#Cc1c(-c2ccc(Cl)cc2)nc(SCc2ccc([N+](=O)[O-])cc2)nc1N1CCNCC1")
"No"
>>> assigned_class("COc1ccc(-c2nc3ccc(-c4nnc(SCC(=O)Nc5ccc(C(=O)/C=C/c6ccc(Cl)cc6)cc5)o4)cc3[nH]2)cc1OC")
"No"
>>> assigned_class("Cc1nc(-c2cc3ccccc3oc2=O)ccc1C(=O)/C=C/c1ccccn1")
"No"

* * *

System: CCRF-CEM leukemia
Test: NCI-60 one-dose screen, 48 h (100 = growth as untreated, 0 = no growth, -100 = all killed)
Conditions: 10 µM unless noted
Protocol: Growth inhibition of the CCRF-CEM human tumor cell line is measured as a screen for anti-cancer activity. Cells are grown in 96 well plates and exposed to the test compound for 48 hours. Compounds are tested at a single concentration, which is 10^-5 M for most compounds. The reported endpoint is percent growth (GI% or GIPRCNT), where numbers from 0 - 100% represent growth inhibition, and numbers from -100% - 0 represent cell death. For example, a value of 40 represents 60% growth inhibition. […]
Compounds without any hit were thinned out: in the full panel of roughly 83,000, 20% have a hit.
// class assignment uses growth with these ranges: 0 (below 30%), 1 (30% to below 90%), 2 (90% or more)

>>> assigned_class("C#Cc1nc(C2=C(C)C(O)CC2)cs1 (stereo not given)")
2
>>> assigned_class("COc1ccc(C(=O)/C=C/c2ccc(OCc3ccc(C)cc3)c(OC)c2)cc1OC")
1
>>> assigned_class("C/C(=N\\NC(N)=O)c1c(O)sc(=O)[nH]c1=O")
2
>>> assigned_class("COc1ccc(NC2=C(Cl)C(=O)C(C)=C(C)C2=O)cc1OC")
0
>>> assigned_class("CCN1CCN(S(=O)(=O)c2oc(-c3ccc(Cl)cc3)nc2C#N)CC1")
0
>>> assigned_class("N/C(=N\\c1nc2c(Cl)cc(Cl)cc2s1)C(Cl)(Cl)Cl")
1
>>> assigned_class("CCOc1ccc([C@H]2C(C(=O)c3ccc(Cl)cc3)C3(N[C@@H]2c2ccccc2)C(=O)Nc2ccc(Br)cc23)cc1 (stereo not given in full)")
1
>>> assigned_class("Cn1cc(-c2cc(N)n3nc(-c4cn(C)c5ccc(Br)cc45)cc3n2)c2cc(Br)ccc21")
0
>>> assigned_class("CCOC(=O)c1csc(NC(=O)CSc2nc3sc4c(c3c(=O)n2-c2ccc(Cl)cc2)CCCC4)n1")
2

* * *

Test system: UACC-62 melanoma
Experiment: NCI-60 one-dose screen, 48 h
Conditions: 10 µM unless noted
Compounds without any hit were thinned out: in the full panel of roughly 83,000, 20% have a hit. The source made the active and inactive calls. The calls were made as follows: active = growth percent below 10; inactive = the rest.
Possible outcomes: t = active, f = inactive

>>> assigned_class("NC(=O)c1cc(-c2ccc3ncnc(N4CCc5cc(F)c(Cl)cc54)c3c2)cnc1N")
"f"
>>> assigned_class("COc1cccc(NC2=CC(=O)C(C)=C(C)C2=O)c1")
"f"
>>> assigned_class("CCOc1ccc([C@H]2C(C(=O)c3ccc(Cl)cc3)C3(N[C@@H]2c2ccccc2)C(=O)Nc2ccc(Br)cc23)cc1 (stereo not given in full)")
"f"
>>> assigned_class("COc1cc(OC)c(C2C(Cl)C(=O)N2Nc2ncnc3ccccc23)cc1OC (stereo not given)")
"f"
>>> assigned_class("Cc1nc(-c2cc3ccccc3oc2=O)ccc1C(=O)/C=C/c1ccc(N2CCOCC2)cc1")
"f"
>>> assigned_class("CCCC(=O)NC(c1cccnc1)c1cc(C)c2cccnc2c1O (stereo not given)")
"f"
>>> assigned_class("CN(C)c1ccc(/C=c2\\sc3nc4ccccc4n3c2=O)cc1")
"f"
>>> assigned_class("COc1cc2cc(Oc3ccc(NC(=O)c4cccc(C(F)(F)F)c4)cc3)c(C)nc2cc1OCCN1CCCCC1")
"t"
>>> assigned_class("O=C1Nc2cc(Cl)ccc2/C1=C\\c1ccc(OCc2ccc([N+](=O)[O-])cc2)cc1")
"f"
>>> assigned_class("Clc1ccc2c(NCCCn3ccnc3)c3oc4ccc(Cl)cc4c3nc2c1")
"f"
